Documented IC50 across a set of compounds
biological target: JAK 2 (Homo sapiens (Human)); test: Biochemical potency on JAK2, TR-FRET LANCE Ultra kinase assay (compounds 1-92); settings: ATP at Km, read-out: JAK2 inhibitory activity (pIC50 class) (converted)
Sequence (O60674 whole entry): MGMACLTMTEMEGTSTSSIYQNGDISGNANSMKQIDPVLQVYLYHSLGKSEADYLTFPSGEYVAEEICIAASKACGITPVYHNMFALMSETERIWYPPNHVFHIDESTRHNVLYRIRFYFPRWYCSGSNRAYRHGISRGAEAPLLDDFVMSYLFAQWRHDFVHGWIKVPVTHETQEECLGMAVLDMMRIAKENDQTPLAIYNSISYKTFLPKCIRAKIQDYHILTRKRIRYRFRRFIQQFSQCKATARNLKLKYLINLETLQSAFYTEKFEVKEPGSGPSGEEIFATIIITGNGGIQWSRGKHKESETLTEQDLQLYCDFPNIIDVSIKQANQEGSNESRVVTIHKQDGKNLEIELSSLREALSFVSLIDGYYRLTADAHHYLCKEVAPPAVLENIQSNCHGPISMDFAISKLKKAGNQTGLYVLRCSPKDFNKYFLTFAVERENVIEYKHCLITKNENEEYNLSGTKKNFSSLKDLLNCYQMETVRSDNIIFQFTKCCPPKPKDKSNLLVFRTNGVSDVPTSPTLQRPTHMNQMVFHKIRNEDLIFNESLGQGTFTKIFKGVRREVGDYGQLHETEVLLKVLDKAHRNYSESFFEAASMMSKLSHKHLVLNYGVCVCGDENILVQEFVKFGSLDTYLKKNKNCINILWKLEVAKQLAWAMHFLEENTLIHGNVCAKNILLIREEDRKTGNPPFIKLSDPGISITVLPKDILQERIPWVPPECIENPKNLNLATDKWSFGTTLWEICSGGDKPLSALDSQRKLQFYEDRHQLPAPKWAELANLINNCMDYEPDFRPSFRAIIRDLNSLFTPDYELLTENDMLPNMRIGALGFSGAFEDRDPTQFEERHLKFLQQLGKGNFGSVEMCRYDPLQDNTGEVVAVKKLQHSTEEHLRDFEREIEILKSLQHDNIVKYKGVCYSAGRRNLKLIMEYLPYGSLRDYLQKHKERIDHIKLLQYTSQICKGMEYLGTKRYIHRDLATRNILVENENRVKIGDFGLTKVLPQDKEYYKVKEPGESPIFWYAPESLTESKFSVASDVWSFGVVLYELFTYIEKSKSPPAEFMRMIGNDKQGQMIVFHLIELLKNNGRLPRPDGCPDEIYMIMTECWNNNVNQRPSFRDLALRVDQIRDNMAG

For orientation, consider the following solved cases.
Compound	Measured Target	Val
COc1cc(NS(C)(=O)=O)ccc1-n1nc(N)c2cnc(-c3cnn4cccnc34)cc21 [Example 79]	JAK 2 (Homo sapiens (Human))	≤ 5.01 nM
COc1cc(NS(C)(=O)=O)ccc1-n1nc(NCC2CN(C)CCO2)c2cnc(-c3cnn4cccnc34)cc21 (racemic) [Example 28]	JAK 2 (Homo sapiens (Human))	≤ 5.01 nM
CNC(=O)NCc1ccc(-n2nc(C)c3cnc(-c4cnn5cccnc45)cc32)c(OC)c1 [Example 71]	JAK 2 (Homo sapiens (Human))	5.01 to 50.1 nM
COc1cc(NS(C)(=O)=O)ccc1-n1nc(NCCN(C)C)c2cnc(-c3cnc4cccnn34)cc21 [Example 77]	JAK 2 (Homo sapiens (Human))	≤ 5.01 nM
COc1cc(CNS(=O)(=O)CC#N)ccc1-n1nc(C)c2cnc(-c3cnn4cccnc34)cc21 [Example 68]	JAK 2 (Homo sapiens (Human))	≤ 5.01 nM
COc1cc(NS(=O)(=O)CC(F)F)ccc1-n1nc(C)c2cnc(-c3cnn4cccnc34)cc21 [Example 73]	JAK 2 (Homo sapiens (Human))	5.01 to 50.1 nM
COc1cc(NS(C)(=O)=O)ccc1-n1nc(C)c2cnc(-c3cnn4cccnc34)cc21 [Example 1]	JAK 2 (Homo sapiens (Human))	≤ 5.01 nM
CCCS(=O)(=O)Nc1ccc(-n2nc(C(=O)NCCCN3CCOCC3)c3cnc(-c4cnn5cccnc45)cc32)c(OC)c1 [Example 47]	JAK 2 (Homo sapiens (Human))	5.01 to 50.1 nM
COc1cc(CNS(C)(=O)=O)ccc1-n1nc(NCCN2CCOCC2)c2cnc(-c3cnn4cccnc34)cc21 [Example 53]	JAK 2 (Homo sapiens (Human))	≤ 5.01 nM
COc1cc(NS(C)(=O)=O)ccc1-n1nc(NCCN(C)C)c2cnc(-c3cnn4cccnc34)cc21 [Example 31]	JAK 2 (Homo sapiens (Human))	≤ 5.01 nM

Please fill in: IC50 reported for COc1cc(NS(=O)(=O)C2CC2)ccc1-n1nc(NCCN2CCOCC2)c2cnc(-c3cnn4cccnc34)cc21 [Example 34] = 5.01 to 50.1 nM

The compound listed as COc1cc(NS(C)(=O)=O)ccc1-n1nc(NCCN2C3CCC2COC3)c2cnc(Nc3ncc[nH]c3=O)cc21 [Example 90] shows IC50 equal to ≤ 5.01 nM

====

Known IC50 of a selection of molecules
target: JAK 3 (Homo sapiens (Human)); assay: Biochemical potency on JAK3, TR-FRET LANCE Ultra kinase assay (compounds 1-92); settings: ATP at Km, read-out: JAK3 inhibitory activity (pIC50 class) (converted)

Chem Smiles	IC50
COc1cc(NS(=O)(=O)C2CC2)ccc1-n1nc(NCCCN2CCOCC2)c2cnc(-c3cnn4cccnc34)cc21	5.01 to 50.1 nM
COc1cc(CNS(C)(=O)=O)ccc1-n1nc(CC#N)c2cnc(-c3cnn4cccnc34)cc21	≤ 5.01 nM

IC50 reading for COc1cc(NS(=O)(=O)C2CC2)ccc1-n1nc(N[C@H]2C[C@@H](N(C)C)C2)c2cnc(-c3cnn4cccnc34)cc21 : ≤ 5.01 nM

// IC50 value for Cc1nn(-c2ccc(NS(C)(=O)=O)cc2OC(F)F)c2cc(-c3cnn4cccnc34)ncc12 : ≤ 5.01 nM

====

biological target: TYK2 (Homo sapiens (Human), UniProt P29597); experiment: Biochemical potency on Tyk2, TR-FRET LANCE Ultra kinase assay (compounds 1-92); details: ATP at Km, read-out: Tyk2 inhibitory activity (pIC50 class) (converted)
Sequence (P29597 whole entry): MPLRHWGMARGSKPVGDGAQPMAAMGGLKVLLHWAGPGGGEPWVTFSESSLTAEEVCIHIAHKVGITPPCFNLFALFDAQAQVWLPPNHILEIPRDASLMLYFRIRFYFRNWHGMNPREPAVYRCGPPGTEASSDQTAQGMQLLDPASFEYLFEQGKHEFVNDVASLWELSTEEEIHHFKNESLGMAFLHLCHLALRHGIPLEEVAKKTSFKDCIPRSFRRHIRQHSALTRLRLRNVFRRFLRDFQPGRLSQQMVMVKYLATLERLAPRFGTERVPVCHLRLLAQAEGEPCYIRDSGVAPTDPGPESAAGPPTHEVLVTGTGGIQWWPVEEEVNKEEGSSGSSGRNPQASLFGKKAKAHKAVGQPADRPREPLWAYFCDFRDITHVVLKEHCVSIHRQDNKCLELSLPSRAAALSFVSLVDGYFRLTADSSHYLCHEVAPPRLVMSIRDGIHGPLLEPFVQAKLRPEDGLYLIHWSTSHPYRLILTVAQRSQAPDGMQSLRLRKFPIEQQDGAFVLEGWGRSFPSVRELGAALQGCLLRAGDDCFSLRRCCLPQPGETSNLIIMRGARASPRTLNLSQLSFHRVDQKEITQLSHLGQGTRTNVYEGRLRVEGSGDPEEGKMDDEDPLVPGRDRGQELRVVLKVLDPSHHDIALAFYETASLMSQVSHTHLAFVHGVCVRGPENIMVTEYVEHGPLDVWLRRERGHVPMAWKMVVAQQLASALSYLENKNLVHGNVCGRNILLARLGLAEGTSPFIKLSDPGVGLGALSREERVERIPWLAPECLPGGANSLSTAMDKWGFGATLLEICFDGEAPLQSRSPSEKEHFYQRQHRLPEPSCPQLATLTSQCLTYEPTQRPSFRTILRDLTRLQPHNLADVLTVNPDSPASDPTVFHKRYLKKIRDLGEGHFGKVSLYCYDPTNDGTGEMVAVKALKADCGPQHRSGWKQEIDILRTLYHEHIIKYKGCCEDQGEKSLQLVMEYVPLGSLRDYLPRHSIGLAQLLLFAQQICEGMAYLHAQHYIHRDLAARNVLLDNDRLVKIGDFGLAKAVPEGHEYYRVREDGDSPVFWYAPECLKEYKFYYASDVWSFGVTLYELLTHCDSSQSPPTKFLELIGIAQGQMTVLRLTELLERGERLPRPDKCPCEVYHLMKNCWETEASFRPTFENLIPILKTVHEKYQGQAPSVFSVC
Assay Readout: IC50

Molecule	IC50
CNc1nn(-c2ccc(NS(C)(=O)=O)cc2OC)c2cc(-c3cnn4cccnc34)ncc12	5.01 to 50.1 nM
COc1cc(NS(C)(=O)=O)ccc1-n1nc(NC(=O)C2CCN(C)C2)c2cnc(-c3cnn4cccnc34)cc21 (racemic)	5.01 to 50.1 nM
CNc1nn(-c2cc(Cl)c(CNS(C)(=O)=O)cc2OC)c2cc(-c3cnn4cccnc34)ncc12	5.01 to 50.1 nM
COc1cc(NS(=O)(=O)C2CC2)ccc1-n1nc(C)c2cnc(-c3cnn4cccnc34)cc21	5.01 to 50.1 nM
COc1cc(NS(=O)(=O)C2CC2)ccc1-n1nc(CC#N)c2cnc(-c3cnn4cccnc34)cc21	5.01 to 50.1 nM
COC(=O)NCc1ccc(-n2nc(C)c3cnc(-c4cnn5cccnc45)cc32)c(OC)c1	> 50.1 nM

Now for a further molecule.
The molecule CNC(=O)NCc1ccc(-n2nc(C)c3cnc(-c4cnn5cccnc45)cc32)c(OC)c1 showed IC50 equal to > 50.1 nM

====

biological target: JAK 3 (Homo sapiens (Human)); test: Biochemical potency on JAK3, TR-FRET LANCE Ultra kinase assay (compounds 1-92); details: ATP at Km, read-out: JAK3 inhibitory activity (pIC50 class) (converted)
Assay Readout: IC50

GET /value?item= COc1cc(NS(C)(=O)=O)ccc1-n1nc(NCCCNC(=O)OC(C)(C)C)c2cnc(-c3cnn4cccnc34)cc21 [Example 21] &field=IC50 returns ≤ 5.01 nM

Looking up COc1cc(NS(C)(=O)=O)ccc1-n1nc(N)c2cnc(-c3cnn4cccnc34)cc21 [Example 79] , I see its IC50 listed as ≤ 5.01 nM

Memo: COc1cc(NS(=O)(=O)CC2CCCO2)ccc1-n1nc(C)c2cnc(-c3cnn4cccnc34)cc21 (centres unmarked) [Example 2] , reported IC50: 5.01 to 50.1 nM

Value of IC50 reported for the molecule CCCS(=O)(=O)Nc1ccc(-n2nc(C)c3cnc(-c4cnn5cccnc45)cc32)c(OC)c1 [Example 4] is ≤ 5.01 nM

The measured IC50 associated with COc1cc(C#N)ccc1-n1nc(C)c2cnc(-c3cnn4cccnc34)cc21 [Example 15] reads 5.01 to 50.1 nM

Short answer for COc1cc(CNS(C)(=O)=O)ccc1-n1nc(NCCN2CCOCC2)c2cnc(-c3cnn4cccnc34)cc21 [Example 53] : IC50 was ≤ 5.01 nM

Reported IC50 for COc1cc(NS(=O)(=O)C2CC2)cnc1-n1nc(NCCN(C)C)c2cnc(-c3cnn4cccnc34)cc21 [Example 29] was 5.01 to 50.1 nM

For this molecule ( COc1cc(NS(=O)(=O)c2cnn(C)c2)ccc1-n1nc(C)c2cnc(-c3cnn4cccnc34)cc21 [Example 10] ), measured IC50 is 5.01 to 50.1 nM

====

target: JAK 3 (Homo sapiens (Human), UniProt P52333); assay: Biochemical potency on JAK3, TR-FRET LANCE Ultra kinase assay (compounds 1-92); details: ATP at Km, read-out: JAK3 inhibitory activity (pIC50 class) (converted)
Sequence (P52333 whole entry): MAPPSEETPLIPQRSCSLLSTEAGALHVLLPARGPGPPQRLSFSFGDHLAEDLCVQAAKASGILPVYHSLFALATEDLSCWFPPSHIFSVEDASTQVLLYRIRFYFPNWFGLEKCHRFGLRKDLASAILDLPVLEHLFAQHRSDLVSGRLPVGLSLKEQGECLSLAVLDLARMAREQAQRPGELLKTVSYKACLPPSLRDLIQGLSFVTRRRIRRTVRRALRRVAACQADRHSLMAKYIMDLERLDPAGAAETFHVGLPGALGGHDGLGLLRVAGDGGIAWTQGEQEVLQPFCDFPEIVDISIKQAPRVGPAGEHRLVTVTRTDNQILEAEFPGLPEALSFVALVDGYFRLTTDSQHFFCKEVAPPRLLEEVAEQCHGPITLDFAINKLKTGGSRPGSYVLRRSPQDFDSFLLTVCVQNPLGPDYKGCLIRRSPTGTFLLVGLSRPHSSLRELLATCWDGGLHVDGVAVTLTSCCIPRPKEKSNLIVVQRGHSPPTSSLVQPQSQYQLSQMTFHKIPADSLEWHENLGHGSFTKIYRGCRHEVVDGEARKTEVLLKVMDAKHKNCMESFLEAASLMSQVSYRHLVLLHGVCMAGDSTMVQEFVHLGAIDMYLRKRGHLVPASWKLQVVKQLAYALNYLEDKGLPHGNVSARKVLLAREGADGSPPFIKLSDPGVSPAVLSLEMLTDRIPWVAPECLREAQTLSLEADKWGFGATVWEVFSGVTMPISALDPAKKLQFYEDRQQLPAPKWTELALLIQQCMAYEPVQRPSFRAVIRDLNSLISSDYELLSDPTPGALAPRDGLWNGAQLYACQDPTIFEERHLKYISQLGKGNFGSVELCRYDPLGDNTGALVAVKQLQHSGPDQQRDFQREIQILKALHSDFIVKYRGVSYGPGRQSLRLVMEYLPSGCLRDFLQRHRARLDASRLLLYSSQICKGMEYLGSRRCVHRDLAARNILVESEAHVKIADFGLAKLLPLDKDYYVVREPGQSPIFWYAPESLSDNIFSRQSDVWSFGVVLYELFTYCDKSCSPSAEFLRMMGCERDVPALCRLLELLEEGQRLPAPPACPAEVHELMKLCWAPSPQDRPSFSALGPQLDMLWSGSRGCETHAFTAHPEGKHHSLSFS
Assay Readout: IC50

Some entries whose results are on file:
Chem Smiles	Measured Target	IC50
CCCS(=O)(=O)Nc1ccc(-n2nc(CNC)c3cnc(-c4cnn5cccnc45)cc32)c(OC)c1	JAK 3 (Homo sapiens (Human), UniProt P52333)	≤ 5.01 nM
COc1cc(CO)ccc1-n1nc(C)c2cnc(-c3cnn4cccnc34)cc21	JAK 3 (Homo sapiens (Human), UniProt P52333)	5.01 to 50.1 nM
COc1cc(NS(C)(=O)=O)cnc1-n1nc(C)c2cnc(-c3cnn4cccnc34)cc21	JAK 3 (Homo sapiens (Human), UniProt P52333)	≤ 5.01 nM

IC50 reported for this molecule COc1cc(NS(C)(=O)=O)ccc1-n1nc(C(=O)NCCCN(C)C)c2cnc(-c3cnn4cccnc34)cc21 : 5.01 to 50.1 nM

====

biological target: TYK2 (Homo sapiens (Human)); experiment: Biochemical potency on Tyk2, TR-FRET LANCE Ultra kinase assay (compounds 1-92); settings: ATP at Km, read-out: Tyk2 inhibitory activity (pIC50 class) (converted)
Assay Readout: IC50

# example entries with known answers
Compound	Assay Readout	Val
COc1cc(CNS(C)(=O)=O)ccc1-n1nc(NCCN2CCOCC2)c2cnc(-c3cnn4cccnc34)cc21	IC50	5.01 to 50.1 nM
COc1cc(NS(=O)(=O)CC2CCCO2)ccc1-n1nc(C)c2cnc(-c3cnn4cccnc34)cc21 (stereo not drawn)	IC50	5.01 to 50.1 nM
COc1cc(NS(C)(=O)=O)c(F)cc1-n1nc(C)c2cnc(-c3cnn4cccnc34)cc21	IC50	> 50.1 nM
COc1cc(NS(C)(=O)=O)ccc1-n1nc(NC(=O)CN2CCN(C)CC2)c2cnc(-c3cnn4cccnc34)cc21	IC50	5.01 to 50.1 nM
COc1cc(CNS(C)(=O)=O)ccc1-n1nc(NCCN(C)C)c2cnc(-c3cnn4cccnc34)cc21	IC50	5.01 to 50.1 nM
COc1cc(NS(C)(=O)=O)ccc1-n1nc(NCCN2CCCCC2)c2cnc(-c3cnn4cccnc34)cc21	IC50	5.01 to 50.1 nM

Sure, the documented IC50 for COc1cc(NS(C)(=O)=O)ccc1-n1nc(NCCN2CCOCC2)c2cnc(-c3cnn4cccnc34)cc21 is 5.01 to 50.1 nM
